Procedure Summary: Tissue distribution in C57 BL6 mice bearing B16
Assay type: in vivo, mouse
Assay Setup: mouse, tumor, iv, 3 umol/animal, 6 h; read-out: tumor % ID/g
Quantity Name: tissue uptake at 6 h (%ID/g)
Field format: number, assumed %ID/g, no unit text.

Form field tissue uptake at 6 h, entry CCN(CC)CCNC(=O)c1ccc(I)cc1 [Derivative A, N-(2-diethylaminoethyl) 4-iodo benzamide] : 3.53

Form field tissue uptake at 6 h, entry CCNCCNC(=O)c1ccc(I)cc1 [Derivative B, N-(2-ethylaminoethyl) 4-iodo benzamide] : 4.69

====

Procedure Summary: Tissue distribution in C57 BL6 mice bearing B16
Type: in vivo, mouse
Assay Setup: mouse, pancreas, iv, 3 umol/animal; 6 h; read-out: pancreas % ID/g
Quantity Name: tissue uptake at 6 h (%ID/g)
Field format: number, assumed %ID/g, no unit text.

Form field tissue uptake at 6 h, entry CCN(CC)CCNC(=O)c1ccc(I)cc1 [Derivative A, N-(2-diethylaminoethyl) 4-iodo benzamide] : 0.55

====

Procedure Summary: Tissue distribution in Swiss nu/nu SSCUP mice bearing Beu
Type: in vivo, human
Assay Setup: mouse, lungs, iv, 3 umol/animal; 12 h; read-out: lungs % ID/g
Quantity Name: tissue uptake at 12 h (%ID/g)
Field format: number, assumed %ID/g, no unit text.

Form field tissue uptake at 12 h, entry CCN(CC)CCNC(=O)c1ccc(I)cc1 [Derivative A, N-(2-diethylaminoethyl) 4-iodo benzamide] : 0.08

====

Procedure Summary: Tissue distribution in C57 BL6 mice bearing B16
Assay type: in vivo, mouse
Assay Setup: mouse, spleen, iv, 3 umol/animal; 4 h; read-out: spleen % ID/g
Quantity Name: tissue uptake at 4 h

Form field tissue uptake at 4 h, entry CCN(CC)CCNC(=O)c1ccc(I)cc1 [Derivative A, N-(2-diethylaminoethyl) 4-iodo benzamide] : 1.36 %ID/g

====

Procedure Summary: Tissue distribution in Swiss nu/nu SSCUP mice bearing Dau
Type: in vivo, human
Assay Setup: mouse, lungs, iv, 3 umol/animal; 8 h; read-out: lungs % ID/g
Quantity Name: tissue uptake at 8 h (%ID/g)
Field format: number, assumed %ID/g, no unit text.

Form field tissue uptake at 8 h, entry CCN(CC)CCNC(=O)c1ccc(I)cc1 [Derivative A, N-(2-diethylaminoethyl) 4-iodo benzamide] : 0.45

Form field tissue uptake at 8 h, entry CCNCCNC(=O)c1ccc(I)cc1 [Derivative B, N-(2-ethylaminoethyl) 4-iodo benzamide] : 0.43

====

Procedure Summary: Tissue distribution in Swiss nu/nu SSCUP mice bearing Beu
Format: in vivo, human
Assay Setup: mouse, submaxillary glands, iv, 3 umol/animal; 1 h; read-out: submaxillary glands % ID/g
Quantity Name: tissue uptake at 1 h (%ID/g)
Field format: number, assumed %ID/g, no unit text.

Form field tissue uptake at 1 h, entry CCN(CC)CCNC(=O)c1ccc(I)cc1 [Derivative A, N-(2-diethylaminoethyl) 4-iodo benzamide] : 5.11

====

Procedure Summary: Tissue distribution in Swiss nu/nu SSCUP mice bearing Dau
Assay type: in vivo, human
Assay Setup: mouse, liver, iv, 3 umol/animal; 8 h; read-out: liver % ID/g
Quantity Name: tissue uptake at 8 h (%ID/g)
Field format: number, assumed %ID/g, no unit text.

Form field tissue uptake at 8 h, entry CCNCCNC(=O)c1ccc(I)cc1 [Derivative B, N-(2-ethylaminoethyl) 4-iodo benzamide] : 0.63

Form field tissue uptake at 8 h, entry CCN(CC)CCNC(=O)c1ccc(I)cc1 [Derivative A, N-(2-diethylaminoethyl) 4-iodo benzamide] : 0.71

====

Procedure Summary: Tissue distribution in Swiss nu/nu SSCUP mice bearing Beu
Assay type: in vivo, human
Assay Setup: mouse, blood, iv, 3 umol/animal, 2 h; read-out: blood % ID/g
Quantity Name: tissue uptake at 2 h (%ID/g)
Field format: number, assumed %ID/g, no unit text.

Form field tissue uptake at 2 h, entry CCN(CC)CCNC(=O)c1ccc(I)cc1 [Derivative A, N-(2-diethylaminoethyl) 4-iodo benzamide] : 0.53

====

Procedure Summary: Tissue distribution in Swiss nu/nu SSCUP mice bearing Beu
Assay type: in vivo, human
Assay Setup: mouse, lungs, iv, 3 umol/animal; 2 h; read-out: lungs % ID/g
Protocol: The study of the tissue distribution of the ^125 I labelled compounds was performed in mice bearing grafted melanomas (cf. autoradiograms above). […] The animals are sacrificed at different time intervals of 1 to 24 hours after the injection. The blood is collected and the principal organs are excised. Aliquots are weighed and the radioactivity of the samples is measured in a […] 1191 counter (analytic tracer). The counting yield for iodine 125 is 60%. […]
Quantity Name: tissue uptake at 2 h (%ID/g)
Field format: number, assumed %ID/g, no unit text.

Form field tissue uptake at 2 h, entry CCN(CC)CCNC(=O)c1ccc(I)cc1 [Derivative A, N-(2-diethylaminoethyl) 4-iodo benzamide] : 4.71

====

Procedure Summary: Tissue distribution in Swiss nu/nu SSCUP mice bearing Dau
Type: in vivo, human
Assay Setup: mouse, pancreas, iv, 3 umol/animal; 8 h; read-out: pancreas % ID/g
Quantity Name: tissue uptake at 8 h (%ID/g)
Field format: number, assumed %ID/g, no unit text.

Form field tissue uptake at 8 h, entry CCN(CC)CCNC(=O)c1ccc(I)cc1 [Derivative A, N-(2-diethylaminoethyl) 4-iodo benzamide] : 0.24

Form field tissue uptake at 8 h, entry CCNCCNC(=O)c1ccc(I)cc1 [Derivative B, N-(2-ethylaminoethyl) 4-iodo benzamide] : 0.14

====

Procedure Summary: Tissue distribution in Swiss nu/nu SSCUP mice bearing Dau
Format: in vivo, human
Assay Setup: mouse, stomach, iv, 3 umol/animal; 6 h; read-out: stomach % ID/g
What tissue uptake at 6 h was measured for each of the following?
Field format: number, assumed %ID/g, no unit text.

Form field tissue uptake at 6 h, entry CCN(CC)CCNC(=O)c1ccc(I)cc1 [Derivative A, N-(2-diethylaminoethyl) 4-iodo benzamide] : 1.17

Form field tissue uptake at 6 h, entry CCNCCNC(=O)c1ccc(I)cc1 [Derivative B, N-(2-ethylaminoethyl) 4-iodo benzamide] : 2

====

Procedure Summary: Tissue distribution in Swiss nu/nu SSCUP mice bearing Dau
Type: in vivo, human
Assay Setup: mouse, intestine, iv, 3 umol/animal; 2 h; read-out: intestine % ID/g
Description: The study of the tissue distribution of the ^125 I labelled compounds was performed in mice bearing grafted melanomas (cf. autoradiograms above). […] The animals are sacrificed at different time intervals of 1 to 24 hours after the injection. The blood is collected and the principal organs are excised. Aliquots are weighed and the radioactivity of the samples is measured in a […] 1191 counter (analytic tracer). The counting yield for iodine 125 is 60%. […]
What tissue uptake at 2 h was measured for each of the following?

Form field tissue uptake at 2 h, entry CCNCCNC(=O)c1ccc(I)cc1 [Derivative B, N-(2-ethylaminoethyl) 4-iodo benzamide] : 2.57 %ID/g

Form field tissue uptake at 2 h, entry CCN(CC)CCNC(=O)c1ccc(I)cc1 [Derivative A, N-(2-diethylaminoethyl) 4-iodo benzamide] : 2.67 %ID/g

====

Procedure Summary: Tissue distribution in Swiss nu/nu SSCUP mice bearing Beu
Format: in vivo, human
Assay Setup: mouse, spleen, iv, 3 umol/animal; 24 h; read-out: spleen % ID/g
Quantity Name: tissue uptake at 24 h (%ID/g)
Field format: number, assumed %ID/g, no unit text.

Form field tissue uptake at 24 h, entry CCN(CC)CCNC(=O)c1ccc(I)cc1 [Derivative A, N-(2-diethylaminoethyl) 4-iodo benzamide] : 0.02

====

What tissue uptake at 4 h was measured for each of the following?
Procedure Summary: Tissue distribution in C57 BL6 mice bearing B16
Type: in vivo, mouse
Assay Setup: mouse, blood, iv, 3 umol/animal, 4 h; read-out: blood % ID/g
Field format: number, assumed %ID/g, no unit text.

Form field tissue uptake at 4 h, entry CCN(CC)CCNC(=O)c1ccc(I)cc1 [Derivative A, N-(2-diethylaminoethyl) 4-iodo benzamide] : 0.54

Form field tissue uptake at 4 h, entry CCNCCNC(=O)c1ccc(I)cc1 [Derivative B, N-(2-ethylaminoethyl) 4-iodo benzamide] : 0.27

====

Procedure Summary: Tissue distribution in C57 BL6 mice bearing B16
Assay type: in vivo, mouse
Assay Setup: mouse, eye, iv, 3 umol/animal, 1 h; read-out: eye % ID/g
Quantity Name: tissue uptake at 1 h (%ID/g)
Field format: number, assumed %ID/g, no unit text.

Form field tissue uptake at 1 h, entry CCN(CC)CCNC(=O)c1ccc(I)cc1 [Derivative A, N-(2-diethylaminoethyl) 4-iodo benzamide] : 13.6

Form field tissue uptake at 1 h, entry CCNCCNC(=O)c1ccc(I)cc1 [Derivative B, N-(2-ethylaminoethyl) 4-iodo benzamide] : 0.45

====

Procedure Summary: Tissue distribution in Swiss nu/nu SSCUP mice bearing Beu
Format: in vivo, human
Assay Setup: mouse, stomach, iv, 3 umol/animal; 24 h; read-out: stomach % ID/g
Quantity Name: tissue uptake at 24 h
Kindly write the number and append the unit.

Form field tissue uptake at 24 h, entry CCN(CC)CCNC(=O)c1ccc(I)cc1 [Derivative A, N-(2-diethylaminoethyl) 4-iodo benzamide] : 0.04 %ID/g
